Catalogue of TGI readings, one per entry.
Test system: SNB-19 CNS
Test: NCI tumour cell line growth inhibition, 48 h

Solved entries (count: 3):
COc1ccc(/C(Cl)=C/c2cc(OC)ccc2OC)cc1 ... > 100 µM
CC(C)(C)C(=CS(=O)/N=C/c1ccccc1)C(C)(C)C (centres undefined) ... > 100 µM
C1=C2CCCC3=Cc4ccccc4OC23Oc2ccccc21 ... > 100 µM

Request: Look up and report measured TGI for this entry: O=C(Nn1c(-c2ccccc2)nc2ccccc2c1=O)c1ccccc1O
Result: > 100 µM

Request: Answer with reported TGI of C/C(=N\Nc1nc2cc(C(F)(F)F)ccc2s1)c1ccccn1
Result: 13.3 µM

Origin of values: PubChem BioAssay (NCI)
